Target: Bromodomain-containing protein 9 (Homo sapiens)
Sequence (Q9H8M2 whole entry): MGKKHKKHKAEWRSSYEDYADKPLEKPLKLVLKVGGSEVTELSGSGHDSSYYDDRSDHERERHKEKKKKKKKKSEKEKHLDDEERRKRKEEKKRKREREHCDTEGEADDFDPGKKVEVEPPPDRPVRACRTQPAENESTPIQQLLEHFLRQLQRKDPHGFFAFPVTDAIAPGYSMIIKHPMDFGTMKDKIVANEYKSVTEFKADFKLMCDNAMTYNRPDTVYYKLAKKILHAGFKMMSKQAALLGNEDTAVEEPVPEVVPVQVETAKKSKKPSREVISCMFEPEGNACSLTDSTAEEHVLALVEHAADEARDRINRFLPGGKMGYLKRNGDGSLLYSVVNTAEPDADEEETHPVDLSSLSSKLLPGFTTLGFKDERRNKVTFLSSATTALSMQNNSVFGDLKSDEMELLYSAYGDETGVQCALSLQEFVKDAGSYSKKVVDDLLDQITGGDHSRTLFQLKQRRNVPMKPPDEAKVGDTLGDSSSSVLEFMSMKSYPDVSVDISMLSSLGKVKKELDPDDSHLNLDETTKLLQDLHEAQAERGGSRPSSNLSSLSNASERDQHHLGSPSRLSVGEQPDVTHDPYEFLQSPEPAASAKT
Assay: BRD9 DiscoverX BROMOscan
reportedEndpoint: Kd (µM)
Write the answer as a number in µM, unit excluded.

Please look at `COCc1nc2cnc3cc(-c4c(C)noc4C)c(OC[C@H]4CCNC4)cc3c2n1[C@H](C)c1ccccc1` and tell me its recorded Kd on Bromodomain-containing protein 9 (Homo sapiens).
30

* * *

Biological target: D(4) dopamine receptor (Homo sapiens, UniProt P21917)
Sequence (P21917 whole entry): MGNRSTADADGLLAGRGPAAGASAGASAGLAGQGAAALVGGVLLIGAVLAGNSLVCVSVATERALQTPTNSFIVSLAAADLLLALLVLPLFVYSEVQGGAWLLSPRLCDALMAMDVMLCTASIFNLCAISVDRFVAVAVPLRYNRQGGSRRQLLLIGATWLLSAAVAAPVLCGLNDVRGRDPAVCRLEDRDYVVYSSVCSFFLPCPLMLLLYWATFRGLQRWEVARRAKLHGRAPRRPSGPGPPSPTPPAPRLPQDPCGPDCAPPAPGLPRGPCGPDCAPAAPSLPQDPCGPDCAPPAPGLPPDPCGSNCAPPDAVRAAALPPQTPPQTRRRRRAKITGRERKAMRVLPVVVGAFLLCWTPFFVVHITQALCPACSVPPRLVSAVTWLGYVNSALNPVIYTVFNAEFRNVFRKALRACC
Assay: GPCRScan assay: inhibition of D4
Parameters: radioligand conc. used [nm] 0.6 – 1.7, parental cells Stable HEK
Details: read-out: Ki
reportedEndpoint: Ki (µM)
Write the answer as a number in µM, unit excluded.

Entry COCc1nc2cnc3cc(-c4c(C)noc4C)c(OC[C@H]4CCNC4)cc3c2n1[C@H](C)c1ccccc1 [GSK778] needs its Ki filled in; supply it.
0.857

* * *

molecular target: Cytochrome P450 3A4 (Homo sapiens, UniProt P08684); assay: Cross screening panel
Sequence (P08684 whole entry): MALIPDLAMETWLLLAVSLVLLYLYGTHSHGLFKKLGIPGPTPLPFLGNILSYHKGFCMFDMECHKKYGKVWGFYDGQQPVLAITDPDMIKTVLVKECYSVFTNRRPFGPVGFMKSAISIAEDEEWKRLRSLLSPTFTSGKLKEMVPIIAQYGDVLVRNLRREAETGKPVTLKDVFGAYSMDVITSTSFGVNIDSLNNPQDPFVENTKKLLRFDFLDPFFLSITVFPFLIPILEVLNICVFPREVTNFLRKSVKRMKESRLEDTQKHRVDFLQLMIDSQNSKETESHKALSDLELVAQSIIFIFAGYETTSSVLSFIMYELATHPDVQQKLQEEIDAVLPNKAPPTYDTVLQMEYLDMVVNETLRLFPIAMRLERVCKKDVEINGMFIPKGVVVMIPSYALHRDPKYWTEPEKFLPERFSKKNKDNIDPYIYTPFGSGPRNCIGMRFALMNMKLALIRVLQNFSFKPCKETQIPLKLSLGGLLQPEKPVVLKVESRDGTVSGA
reportedEndpoint: pIC50
Give only the number. pIC50 is defined as minus log10 of concentration in molar units.

Entry `COCc1nc2cnc3cc(-c4c(C)noc4C)c(OC[C@H]4CCNC4)cc3c2n1[C@H](C)c1ccccc1` needs its pIC50 filled in; supply it.
6.00

* * *

biological target: UniProt O75469; assay: Cross screening panel
Sequence (O75469 whole entry): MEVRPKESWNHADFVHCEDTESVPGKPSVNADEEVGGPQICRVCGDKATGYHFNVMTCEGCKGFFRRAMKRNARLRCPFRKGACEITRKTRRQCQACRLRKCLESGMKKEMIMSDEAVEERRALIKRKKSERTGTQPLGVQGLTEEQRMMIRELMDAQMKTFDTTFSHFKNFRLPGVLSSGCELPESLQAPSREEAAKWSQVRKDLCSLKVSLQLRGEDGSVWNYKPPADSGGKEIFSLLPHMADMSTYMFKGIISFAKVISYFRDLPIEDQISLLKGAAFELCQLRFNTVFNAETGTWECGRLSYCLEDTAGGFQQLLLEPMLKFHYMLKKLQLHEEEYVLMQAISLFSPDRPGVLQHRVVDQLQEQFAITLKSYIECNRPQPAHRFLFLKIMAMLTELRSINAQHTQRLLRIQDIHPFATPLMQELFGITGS
reportedEndpoint: EC50

Entry `COCc1nc2cnc3cc(-c4c(C)noc4C)c(OC[C@H]4CCNC4)cc3c2n1[C@H](C)c1ccccc1` needs its EC50 filled in; supply it.
> 50.1 µM

* * *

Target: ATPase family AAA domain-containing protein 2 (Homo sapiens, UniProt Q6PL18)
Sequence (Q6PL18 whole entry): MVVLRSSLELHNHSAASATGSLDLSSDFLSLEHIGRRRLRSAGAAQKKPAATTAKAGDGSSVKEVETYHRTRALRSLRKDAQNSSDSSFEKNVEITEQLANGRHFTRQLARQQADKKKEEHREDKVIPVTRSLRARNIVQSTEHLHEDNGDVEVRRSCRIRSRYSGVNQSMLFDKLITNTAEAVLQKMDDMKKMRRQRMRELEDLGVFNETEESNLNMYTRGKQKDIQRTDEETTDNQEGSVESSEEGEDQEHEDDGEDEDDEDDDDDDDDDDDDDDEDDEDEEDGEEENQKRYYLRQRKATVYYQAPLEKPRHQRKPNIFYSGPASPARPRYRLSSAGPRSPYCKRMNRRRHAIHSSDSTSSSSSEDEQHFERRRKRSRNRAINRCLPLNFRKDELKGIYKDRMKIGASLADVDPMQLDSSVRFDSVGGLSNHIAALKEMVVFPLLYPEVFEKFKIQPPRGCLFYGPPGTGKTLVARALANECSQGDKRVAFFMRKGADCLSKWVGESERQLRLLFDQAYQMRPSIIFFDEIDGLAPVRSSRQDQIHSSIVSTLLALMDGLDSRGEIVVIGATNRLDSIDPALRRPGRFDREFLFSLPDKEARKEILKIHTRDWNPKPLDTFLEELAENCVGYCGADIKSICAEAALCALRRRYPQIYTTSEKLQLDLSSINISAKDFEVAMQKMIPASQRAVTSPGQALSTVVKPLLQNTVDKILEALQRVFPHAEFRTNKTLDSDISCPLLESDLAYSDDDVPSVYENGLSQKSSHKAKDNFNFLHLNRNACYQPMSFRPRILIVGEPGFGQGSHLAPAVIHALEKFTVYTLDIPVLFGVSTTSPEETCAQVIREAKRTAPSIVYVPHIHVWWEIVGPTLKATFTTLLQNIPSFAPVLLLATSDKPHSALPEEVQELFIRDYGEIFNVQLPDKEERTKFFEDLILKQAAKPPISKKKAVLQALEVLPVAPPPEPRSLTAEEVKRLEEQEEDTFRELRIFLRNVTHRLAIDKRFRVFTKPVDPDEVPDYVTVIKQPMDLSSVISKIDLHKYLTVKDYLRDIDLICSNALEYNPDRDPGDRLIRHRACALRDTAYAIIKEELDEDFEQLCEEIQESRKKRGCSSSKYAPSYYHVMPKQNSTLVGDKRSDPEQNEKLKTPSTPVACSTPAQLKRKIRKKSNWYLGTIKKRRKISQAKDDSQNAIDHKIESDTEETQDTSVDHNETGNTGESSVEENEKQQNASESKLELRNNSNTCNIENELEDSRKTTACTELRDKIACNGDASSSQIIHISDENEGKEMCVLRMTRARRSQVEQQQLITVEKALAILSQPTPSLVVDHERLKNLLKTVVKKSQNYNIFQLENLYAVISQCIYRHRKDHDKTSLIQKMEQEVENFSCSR
Experiment: ATAD2A DiscoverX BROMOscan
reportedEndpoint: pKd
Give only the number. pKd is defined as minus log10 of concentration in molar units.

Entry COCc1nc2cnc3cc(-c4c(C)noc4C)c(OC[C@H]4CCNC4)cc3c2n1[C@H](C)c1ccccc1 [GSK778] needs its pKd filled in; supply it.
4.52

* * *

molecular target: Kappa-type opioid receptor (Homo sapiens, UniProt P41145); experiment: Cross screening panel
Sequence (P41145 whole entry): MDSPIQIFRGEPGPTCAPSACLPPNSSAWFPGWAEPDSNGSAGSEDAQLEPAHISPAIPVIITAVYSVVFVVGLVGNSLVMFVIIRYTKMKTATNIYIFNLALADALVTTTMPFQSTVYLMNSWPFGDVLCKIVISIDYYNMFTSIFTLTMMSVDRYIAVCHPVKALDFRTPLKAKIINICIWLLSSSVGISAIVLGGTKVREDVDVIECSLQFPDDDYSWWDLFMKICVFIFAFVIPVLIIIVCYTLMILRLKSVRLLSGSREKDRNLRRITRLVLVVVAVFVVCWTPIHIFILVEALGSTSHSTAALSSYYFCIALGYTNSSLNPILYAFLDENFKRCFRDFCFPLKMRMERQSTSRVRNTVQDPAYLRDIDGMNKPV
reportedEndpoint: EC50

Entry `COCc1nc2cnc3cc(-c4c(C)noc4C)c(OC[C@H]4CCNC4)cc3c2n1[C@H](C)c1ccccc1` needs its EC50 filled in; supply it.
> 100 µM

* * *

molecular target: Nucleosome-remodeling factor subunit BPTF (Homo sapiens, UniProt Q12830); experiment: FALZ DiscoverX BROMOscan
reportedEndpoint: Kd (µM)
Write the answer as a number in µM, unit excluded.

Entry `COCc1nc2cnc3cc(-c4c(C)noc4C)c(OC[C@H]4CCNC4)cc3c2n1[C@H](C)c1ccccc1` needs its Kd filled in; supply it.
30

* * *

Target: 5-hydroxytryptamine receptor 3A (Homo sapiens, UniProt P46098)
Sequence (P46098 whole entry): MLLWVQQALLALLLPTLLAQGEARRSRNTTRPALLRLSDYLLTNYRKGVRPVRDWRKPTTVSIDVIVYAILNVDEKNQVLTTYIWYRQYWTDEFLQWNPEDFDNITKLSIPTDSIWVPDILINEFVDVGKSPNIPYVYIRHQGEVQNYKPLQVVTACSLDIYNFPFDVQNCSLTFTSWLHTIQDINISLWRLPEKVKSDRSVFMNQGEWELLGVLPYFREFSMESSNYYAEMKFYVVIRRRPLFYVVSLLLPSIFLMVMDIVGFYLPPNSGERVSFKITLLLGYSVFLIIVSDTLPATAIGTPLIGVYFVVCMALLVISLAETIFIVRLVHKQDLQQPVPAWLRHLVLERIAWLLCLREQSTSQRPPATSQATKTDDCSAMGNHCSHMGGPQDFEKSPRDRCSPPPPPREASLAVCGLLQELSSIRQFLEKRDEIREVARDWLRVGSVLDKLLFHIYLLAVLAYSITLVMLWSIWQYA
reportedEndpoint: IC50

Entry `COCc1nc2cnc3cc(-c4c(C)noc4C)c(OC[C@H]4CCNC4)cc3c2n1[C@H](C)c1ccccc1` needs its IC50 filled in; supply it.
> 50.1 µM
